- tgt: His6-Flag-TEV-NLRP3 (134-1036) (Homo sapiens)
- Construct: fused on or other part: N-terminal His6 tag, Flag tag and TEV cleavage site
- Sequence (Q96P20 134-1036 limits assumed): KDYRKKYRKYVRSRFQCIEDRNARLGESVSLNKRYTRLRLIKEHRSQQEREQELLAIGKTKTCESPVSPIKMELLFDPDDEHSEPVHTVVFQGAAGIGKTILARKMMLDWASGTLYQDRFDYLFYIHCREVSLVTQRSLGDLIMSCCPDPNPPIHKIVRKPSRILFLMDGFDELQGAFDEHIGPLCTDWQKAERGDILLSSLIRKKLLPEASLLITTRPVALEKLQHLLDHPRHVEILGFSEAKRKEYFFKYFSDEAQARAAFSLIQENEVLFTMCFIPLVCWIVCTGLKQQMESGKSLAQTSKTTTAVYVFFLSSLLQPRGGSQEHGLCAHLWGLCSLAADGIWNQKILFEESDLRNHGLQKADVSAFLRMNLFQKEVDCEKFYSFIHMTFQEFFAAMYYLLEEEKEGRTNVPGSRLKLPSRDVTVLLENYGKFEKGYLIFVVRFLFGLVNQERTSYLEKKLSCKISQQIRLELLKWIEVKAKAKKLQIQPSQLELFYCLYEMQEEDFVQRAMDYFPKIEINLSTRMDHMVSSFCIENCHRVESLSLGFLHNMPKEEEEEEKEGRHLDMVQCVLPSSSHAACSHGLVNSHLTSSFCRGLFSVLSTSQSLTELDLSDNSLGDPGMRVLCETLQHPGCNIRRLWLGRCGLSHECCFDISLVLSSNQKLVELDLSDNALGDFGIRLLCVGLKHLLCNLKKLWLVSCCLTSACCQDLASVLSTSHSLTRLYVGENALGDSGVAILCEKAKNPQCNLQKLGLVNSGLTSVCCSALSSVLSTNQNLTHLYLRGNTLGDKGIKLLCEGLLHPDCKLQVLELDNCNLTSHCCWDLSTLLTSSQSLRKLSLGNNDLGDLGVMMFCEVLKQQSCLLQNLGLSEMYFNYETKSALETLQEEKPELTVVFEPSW
- assay protocol: NLRP3 fluorescence polarization (FP) binding assay, competition with probe NP3-301
- test context: competition with NP3-301 for binding to NLRP3 (134-1036), 30 nM protein
quantity measured: IC50

Answered examples (5):
1. Cc1cc(C(F)(F)F)cc(O)c1-c1cc(C)c2nc(N[C@@H]3CCCN(C)C3)nn2n1 :: ≤ 100 nM
2. Cc1cc(C(F)(F)F)cc(O)c1-c1cc2ccn(C3CS(=O)(=O)C3)c2nn1 :: 100 to 500 nM
3. Cc1cc(C(F)(F)F)cc(O)c1-c1ccc2oc(N3CCC4(CCOC4)C3)nc2n1 (stereo not drawn) :: 100 to 500 nM
4. Cc1cc(C(F)(F)F)cc(O)c1-c1ccc2oc(N3CCO[C@H](C)C3)nc2n1 :: ≤ 100 nM
5. CCN1CCCC(n2ccc3cc(-c4c(C)cc(C(F)(F)F)cc4O)nnc32)C1 (stereo not drawn) :: ≤ 100 nM

Task: Given `CCS(=O)(=O)N1CCN(c2nc3nc(-c4c(C)cc(C(F)(F)F)cc4O)ccc3o2)CC1` , state its recorded IC50.
Output: ≤ 100 nM

Task: Given `Cc1cc(C(F)(F)F)cc(O)c1-c1ccc2oc(N3C[C@H]4C[C@@H]3CO4)nc2n1` , state its recorded IC50.
Output: 100 to 500 nM

Task: Given `CC(=O)N1CCOC2(CCN(c3nc4nc(-c5c(C)cc(C(F)(F)F)cc5O)ccc4o3)CC2)C1` , state its recorded IC50.
Output: 100 to 500 nM

Task: Given `Cc1cc(C(F)(F)F)cc(O)c1-c1ccc2[nH]c(CC(N)=O)nc2n1` , state its recorded IC50.
Output: ≤ 100 nM
